# target-of-assay: T1, N36 peptide derived from HIV-1 JR-FL gp41 (HIV-1 (JR-FL))
# T1 chain: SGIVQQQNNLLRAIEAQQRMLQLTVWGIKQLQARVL
# assay-text: ELISA
pIC50: −log10 of the molar value. Positions of bridges follow the written chain, without caps; N, C: chain ends. No end group written: not given here.

binder | pIC50
RLCYMVLPCP (disulfide 3-9 (inferred)) [fejerlectin] | 5.58

Cited source for all entries: paper PMC7948434
